conditionNotes: buffer; pH 7.4; 200.0 µM
Each record gets a class by solubility kinetic: low bin = under 5 µg/mL, mid bin = from 5 µg/mL up to 30 µg/mL, high bin = 30 µg/mL and over

Study these solved cases before continuing.
* Cc1cc(NS(C)(=O)=O)c(=O)n(Cc2cccc(F)c2)c1 | high bin
* CN(CCC#N)C(=O)CC(Cc1ccccc1)C1CCOC(C)(C)C1 (centres undefined) | high bin
* CN(Cc1nc(-c2ccc(C(F)(F)F)cc2)no1)C1CCOCC1 | high bin
* O=C1/C(=C/c2ccccn2)SC(=S)N1c1cccc(O)c1 | low bin
* COc1ccc([N+](=O)[O-])cc1C(=O)C(=O)c1ccccc1 | low bin

Please indicate the class for "Cc1cccc(NC(=O)CC2(CC(=O)O)CCCC2)c1" based on its solubility kinetic.
high bin

Please indicate the class for CC1(C)CC2CC(C)(CN2C(=O)COC(=O)c2ccc(O)cc2O)C1 (centres undefined) based on its solubility kinetic.
mid bin

Please indicate the class for "Nc1cc(S(=O)(=O)N2CCCCC2)ccc1N1CCOCC1" based on its solubility kinetic.
high bin

Please indicate the class for "CCOC(=O)c1ccc(NC(C)=O)c([N+](=O)[O-])c1" based on its solubility kinetic.
high bin

Please indicate the class for "O=c1nc2n(c3cccc(Cl)c13)CCCCC2" based on its solubility kinetic.
high bin

Please indicate the class for "O=C(CCNC(=O)c1ccccc1)NNC(=O)c1ccccc1Br" based on its solubility kinetic.
high bin

Please indicate the class for "CCOC(=O)c1sc(NC(=O)CSC(=S)N2CCOCC2)nc1C" based on its solubility kinetic.
low bin

Please indicate the class for O=C(NC1CCCc2ccccc21)N[C@@H](Cc1ccccc1)C(=O)O (some centres undefined) based on its solubility kinetic.
high bin

Please indicate the class for "CC(C)(C)OC(=O)CN1c2cccc3cccc(c23)S1(=O)=O" based on its solubility kinetic.
mid bin

Please indicate the class for "O=C(Nc1cc(S(=O)(=O)Nc2ccccc2F)ccc1Cl)c1ccc(F)cc1F" based on its solubility kinetic.
low bin

Please indicate the class for "Cc1ccccc1Oc1ncnc(N)c1[N+](=O)[O-]" based on its solubility kinetic.
mid bin

Please indicate the class for "C=CCOn1c(=O)c(-c2ccc(F)cc2)[n+]([O-])c2ccccc21" based on its solubility kinetic.
low bin

Please indicate the class for "CCNC(=O)c1ccc(CSc2nc3ccccc3s2)cc1" based on its solubility kinetic.
mid bin

Please indicate the class for "O=C1Cc2ccccc2C(=O)N1c1ccc(F)cc1Cl" based on its solubility kinetic.
high bin

Please indicate the class for "Cn1cccc1C(=O)OCC(=O)c1c[nH]c2ccccc12" based on its solubility kinetic.
mid bin

Please indicate the class for "Cc1ccc(CNC(=O)CCCc2cn(C)c3ccccc23)cc1" based on its solubility kinetic.
low bin

---

conditionNotes: buffer; pH 7.4; 200.0 µM
Assignment: determine reported solubility kinetic for the given compounds.
One number for each entry, in µg/mL.

• COc1ccc2oc(C(=O)Nc3nc(C)cs3)c(C)c2c1 = 4.8

Quick request: solubility kinetic for each listed item, please.
1. C=CCNC(=S)N(Cc1ccccc1)Cc1ccc(F)cc1
2. CCOC(=O)c1ccc2[nH]c3c(c2c1)CCCC3

[14, 5.5]

---

conditionNotes: buffer; pH 7.4; 200.0 µM
Returns True if the recorded solubility kinetic is greater than or equal to 10 µg/mL, and False otherwise.

Study these solved cases before continuing.
- Cc1cnc(C(=O)N2CCN(c3ccc(C(F)(F)F)cn3)CC2)cn1: True
- COc1cc2c(cc1OC)C(c1c(Cl)cccc1Cl)NC(=O)C2 (stereo not drawn): True
- COc1ccc(CNC(=O)CN2C(=O)c3ccccc3C2=O)cc1: False
- CN(CCc1cnn(C)c1)Cc1cn(C)nc1-c1ccccc1F: True
- COc1ccc(Cc2nnc(-c3ccccc3)o2)cc1: True
- COc1ccc(NC(=O)CS(=O)c2ccccc2Cl)cc1 (stereo not drawn): True

Is it the case that Cc1cc([N+](=O)[O-])cc2c1NC(=O)C2(O)N1CCCC(C)C1 (stereo not drawn) has solubility kinetic reaching or exceeding 10 µg/mL?
True

Is it the case that CN(C)CC(O)CN(c1ccccc1)c1ccccc1 (stereo not drawn) has solubility kinetic reaching or exceeding 10 µg/mL?
True

Is it the case that CC1CC2(CCCC2)N(C(=O)N(C)C)c2ccc(F)cc21 (stereo not drawn) has solubility kinetic reaching or exceeding 10 µg/mL?
True

Is it the case that "Nc1ncnc(Sc2ncccn2)c1[N+](=O)[O-]" has solubility kinetic reaching or exceeding 10 µg/mL?
True

---

Assignment: determine reported solubility kinetic for the given molecules.
conditionNotes: buffer; pH 7.4; 200.0 µM
One number for each entry, in mg/mL.

Recorded results for 5 molecules are shown here.
- Cc1ccc(O)c(N/C=C/C(=O)c2ccc(F)cc2)c1: 0.0011
- NC(=O)c1cc2c(s1)-c1cc(Cl)ccc1SC2: 0.0008
- CC1CCN(C(=O)c2ccccc2NC(=O)c2cccc(S(=O)(=O)N(C)C)c2)CC1: 0.0639
- O=C1OC(CO)CN1Cc1ccccc1 (stereo unspecified): 0.0303
- Cn1cccc1/C=C1\SC(=Nc2cccc(O)c2)NC1=O: 0.0056

Quick request: solubility kinetic for each listed item, please.
1. N/C(=N\OC(=O)c1cccs1)c1cccnc1
2. CSc1ccccc1C(=O)OCC(=O)Nc1cccnc1Cl
3. CN(Cc1ccccn1)Cc1nc(-c2ccc(Cl)cc2)no1
4. O=c1[nH]sc2ccccc12

[0.0331, 0.0156, 0.0355, 0.0217]

Quick request: solubility kinetic for each listed item, please.
1. O=[N+]([O-])c1ccc(CN2CCN(c3ccccc3)CC2)o1
2. COc1ccc(CC(=O)Nc2cccc3c2CCCC3)cc1
3. O=C(CSCc1c(F)cccc1Cl)NCCSCc1ccco1
4. O=C(CCNc1ccc(Br)cc1)c1cccc([N+](=O)[O-])c1

0.0145
0.0018
0.0368
0.0046

Quick request: solubility kinetic for each listed item, please.
1. c1ccc(CC2CCCCN2)cc1 (stereo unspecified)
2. O=C1c2ccccc2NC(c2ccc(F)cc2)N1Cc1ccccc1 (stereo unspecified)

1. 0.0077
2. 0.0014

---

conditionNotes: buffer; pH 7.4; 200.0 µM
attributeMeasured: solubility kinetic (µg/mL)
One number for each entry, in µg/mL.

Quick request: solubility kinetic for each listed item, please.
1. Cc1ccc(C(=O)NC2CC(C)(C)NC(C)(C)C2)cc1
2. CN(c1ccc(C(=O)Nc2ccc(CC#N)cc2)cc1)S(C)(=O)=O
3. COc1cccc(NC(=O)C2C3C=CC(C3)C2C(=O)O)c1 (stereo unspecified)
4. COc1ccc(C(=O)NCc2ccc3c(c2)cc(C)n3C)cc1OC
5. Cc1c(CN2CCN(CC(C)(C)C)C(CCO)C2)[nH]c2ccccc12 (stereo unspecified)
6. COc1ccc(C2(CNS(=O)(=O)c3ccccc3)CCOCC2)cc1

1: 40.2; 2: 4.2; 3: 27.1; 4: 4.7; 5: 45.1; 6: 46.6

---

Assignment: determine reported log10 of solubility kinetic for the given compounds.
conditionNotes: buffer; pH 7.4; 200.0 µM
Please interpret these as log10 of solubility kinetic where solubility kinetic is in mg/mL.

- COc1cccc(CC(CC(=O)O)C(=O)Nc2cc(C)ccc2C)c1 (centres undefined): -1.45

Quick request: log10 of solubility kinetic for each listed item, please.
1. O=C(COC(=O)c1cccnc1Cl)c1ccc(F)cc1
2. COCCN(Cc1ccccc1)C(=S)Nc1ccc(Cl)cc1
3. CCOC(=O)C(Cc1c(F)cccc1Cl)c1ccno1 (centres undefined)
4. CC(C)(C)c1ccc(OCC(=O)Nc2ccncc2)c(Br)c1
5. C=Cn1cc[n+](CC(=O)c2ccc(OC)cc2)c1.[Br-]
6. CCCN1CCN(C(=O)c2oc3c(Cl)cccc3c2C)CC1
7. CCCNC(=O)CNC(=S)N(Cc1ccccc1F)C1CCCCC1
8. O=C(Nc1ccccc1)/C(=C\c1ccccc1)NC(=O)c1ccco1

-1.37
-2.07
-1.53
-1.98
-1.34
-1.45
-1.37
-3.15

Quick request: log10 of solubility kinetic for each listed item, please.
1. O=C(CN1C(=O)c2ccccc2S1(=O)=O)Nc1cccc(S(=O)(=O)N2CCCCC2)c1
2. Cc1c(-c2csc(N)n2)c2ccccc2n1C
3. CCN(c1ccccc1)S(=O)(=O)c1cc(NC(=O)C2CC2)ccc1Cl
4. c1ccc(-c2ncc(CN3CCN(c4ccccn4)CC3)[nH]2)cc1
5. Cc1ccc(CNC(=O)CSCc2ccccc2)cc1

1. -1.46
2. -1.52
3. -1.58
4. -1.34
5. -1.71

---

Assignment: determine reported solubility kinetic for the given compounds.
conditionNotes: buffer; pH 7.4; 200.0 µM
Answers are plain numbers, in µg/mL.

Recorded results for 4 compounds are shown here.
• O=[N+]([O-])C1=CC=C2C(=NC3(CCCCC3)N2O)C1=NCCc1ccccc1 = 1.4
• Cc1cccc(OCC(=O)NCc2nc(-c3ccccc3)no2)c1 = 3.1
• O=S(=O)(c1ccc(Br)cc1)N1CCCC1 = 41.5
• CC1SCC(NC(=O)c2ccc(Cl)cc2)CS1 (configuration not stated) = 39.2

Attention now shifts to the item below.
Return reported solubility kinetic; argument: "CO/N=C1\CCn2c1c(C)c1ccccc12"
0.8
